The reported numbers originate from patent US12612411B1.

study_target: nanoKAZ luciferase (Oplophorus gracilirostris, UniProt Q9GV45, A31E/A60N/A81I/F95D/I117V/K70R/L54V/L99Q/M102K/N193R/P142E/Q151K/Q38R/Q45L/V71I/Y165I)
Construct: luciferase catalytic domain (nanoKAZ, 19 kDa) from the Oplophorus-derived luciferase; host or cells: cell-free: 1-Step Human Coupled IVT Kit, pT7CFE1-based vector
Sequence (Q9GV45 other isoform, or with tags, fused parts or gaps with the stated changes): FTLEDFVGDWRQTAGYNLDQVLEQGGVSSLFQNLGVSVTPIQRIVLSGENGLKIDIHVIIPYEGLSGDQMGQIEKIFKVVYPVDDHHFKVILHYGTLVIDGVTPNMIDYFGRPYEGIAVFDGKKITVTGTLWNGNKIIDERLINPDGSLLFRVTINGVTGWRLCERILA
experiment_description: In vitro bioluminescence screening of imidazo[1,2-a]pyrazin-3(7H)-ones with nanoKAZ expressed in vitro (96-well luminometer, 2 h kinetic)
Format: biochemical
condition_parameters: Table 1; furimazine = 1
Use V3: area under the curve for ten minutes, normalized using furimazine (Q-1) as a reference to assign classes; range list: low range = under 1, mid range = from 1 up to 2, high range = 2 and over

Check out these entries, answers already filled in.
compound	discrete_label
Cc1cccc(Cc2nc3c(Cc4ccccc4F)[nH]c(-c4ccccc4)cn-3c2=O)c1	mid range
CCc1ccc(Cc2nc3c(Cc4ccccc4F)[nH]c(-c4ccccc4)cn-3c2=O)o1	high range
O=c1c(Cc2ccccc2F)nc2c(Cc3ccccc3)[nH]c(-c3ccccc3)cn1-2	mid range

Q) Entry COc1cccc(Cc2nc3c(Cc4ccccc4)[nH]c(-c4ccccc4)cn-3c2=O)c1 belongs to which category?
A) mid range

Q) # bin label for O=c1c(Cc2ccc(O)cc2)nc2c(Cc3ccccc3)[nH]c(-c3ccc(O)cc3)cn1-2 [Q-86, reference compound]
A) low range

Q) For this compound, which bin applies? Cc1cc(Cc2nc3c(Cc4ccccc4)[nH]c(-c4ccccc4)cn-3c2=O)oc1C
A) mid range

Q) Which bin, given its V3: area under the curve for ten minutes, normalized using furimazine (Q-1) as a reference, does O=c1c(Cc2ccccc2)nc2c(Cc3ccccc3)[nH]c(-c3ccccc3F)cn1-2 occupy?
A) mid range

Q) Where would Cc1cccc(Cc2nc3c(Cc4ccccc4)[nH]c(-c4ccccc4)cn-3c2=O)c1 land among the classes by reported V3: area under the curve for ten minutes, normalized using furimazine (Q-1) as a reference?
A) mid range

Q) Kindly state the category for this compound: Cc1ccc(Cc2nc3c(Cc4ccccc4)[nH]c(-c4ccccc4F)cn-3c2=O)o1
A) mid range

Q) Which V3: area under the curve for ten minutes, normalized using furimazine (Q-1) as a reference band matches O=c1c(Cc2ccco2)nc2c(Cc3ccccc3)[nH]c(-c3ccc(O)cc3)cn1-2 [Q-80, reference compound] ?
A) low range

Q) Lab log: O=c1c(Cc2ccc(C3CC3)o2)nc2c(Cc3ccccc3)[nH]c(-c3ccccc3)cn1-2 — assign V3: area under the curve for ten minutes, normalized using furimazine (Q-1) as a reference category
A) mid range

Q) Hi, small favor: classify O=c1c(Cc2ccccc2)nc2c(Cc3ccccc3F)[nH]c(-c3ccccc3)cn1-2 by its V3: area under the curve for ten minutes, normalized using furimazine (Q-1) as a reference when you get a moment.
A) mid range

Q) Bin this entry: O=c1c(Cc2cccc(F)c2)nc2c(Cc3ccccc3)[nH]c(-c3ccccc3)cn1-2
A) mid range

###

study_target: nanoKAZ luciferase (Oplophorus gracilirostris, UniProt Q9GV45, A31E/A60N/A81I/F95D/I117V/K70R/L54V/L99Q/M102K/N193R/P142E/Q151K/Q38R/Q45L/V71I/Y165I)
Construct: luciferase catalytic domain (nanoKAZ, 19 kDa) from the Oplophorus-derived luciferase; host or cells: cell-free: 1-Step Human Coupled IVT Kit, pT7CFE1-based vector
experiment_description: In vitro bioluminescence screening of imidazo[1,2-a]pyrazin-3(7H)-ones with nanoKAZ expressed in vitro (96-well luminometer, 2 h kinetic)
Format: biochemical
condition_parameters: second table; furimazine = 1
readout_kind: V4: area under the curve for ten minutes, normalized using furimazine (Q-1) as a reference
Answer field: number only, no words.

Known results for molecules:
molecule	value
CCc1ccc(Cc2nc3c(Cc4c(F)cccc4F)[nH]c(-c4ccccc4)cn-3c2=O)o1	1.32
Cc1cc(Cc2nc3c(Cc4cccc(F)c4)[nH]c(-c4ccccc4)cn-3c2=O)oc1C	1
CCc1oc(Cc2nc3c(Cc4cccc(F)c4F)[nH]c(-c4ccccc4)cn-3c2=O)cc1C	1.34
Cc1cc(Cc2nc3c(Cc4cccc(F)c4F)[nH]c(-c4ccccc4)cn-3c2=O)oc1C	1.03
Cc1cc(Cc2nc3c(Cc4ccccc4F)[nH]c(-c4ccccc4)cn-3c2=O)oc1C	1.02

Q) Give the reported V4: area under the curve for ten minutes, normalized using furimazine (Q-1) as a reference for this molecule. Cc1ccc(Cc2nc3c(Cc4cccc(F)c4F)[nH]c(-c4ccccc4)cn-3c2=O)o1
A) 2.1

Q) Report V4: area under the curve for ten minutes, normalized using furimazine (Q-1) as a reference for O=c1c(Cc2ccco2)nc2c(Cc3ccccc3)[nH]c(-c3ccccc3)cn1-2 [Q-1, reference compound]
A) 1

Q) # return recorded V4: area under the curve for ten minutes, normalized using furimazine (Q-1) as a reference for entry Cc1ccc(Cc2nc3c(Cc4cccc(F)c4)[nH]c(-c4ccccc4F)cn-3c2=O)o1
A) 1.72

###

study_target: nanoKAZ luciferase (Oplophorus gracilirostris, UniProt Q9GV45, A31E/A60N/A81I/F95D/I117V/K70R/L54V/L99Q/M102K/N193R/P142E/Q151K/Q38R/Q45L/V71I/Y165I)
Construct: luciferase catalytic domain (nanoKAZ, 19 kDa) from the Oplophorus-derived luciferase; host or cells: cell-free: 1-Step Human Coupled IVT Kit, pT7CFE1-based vector
experiment_description: In vitro bioluminescence screening of imidazo[1,2-a]pyrazin-3(7H)-ones with nanoKAZ expressed in vitro (96-well luminometer, 2 h kinetic)
Assay type: biochemical
condition_parameters: second table; luciferins made in situ from O-protected P; furimazine = 1
readout_kind: V1: maximum intensity, normalized using furimazine (Q-1) as a reference
# respond with the number and nothing more

Example cases with answers are listed next.
molecule	value
O=c1c(Cc2ccco2)nc2c(Cc3ccccc3)[nH]c(-c3cccc(O)c3)cn1-2	1.12
O=c1c(Cc2ccco2)nc2c(Cc3cccc(F)c3F)[nH]c(-c3ccccc3)cn1-2	1.03

Q) Please list V1: maximum intensity, normalized using furimazine (Q-1) as a reference recorded for the molecule CCc1oc(Cc2nc3c(Cc4cccc(F)c4F)[nH]c(-c4ccccc4)cn-3c2=O)cc1C
A) 1.43

Q) Give the reported V1: maximum intensity, normalized using furimazine (Q-1) as a reference for this molecule. O=c1c(Cc2ccco2)nc2c(Cc3ccccc3)[nH]c(-c3ccccc3)cn1-2 [Q-1, reference compound]
A) 1

###

study_target: nanoKAZ luciferase (Oplophorus gracilirostris, UniProt Q9GV45, A31E/A60N/A81I/F95D/I117V/K70R/L54V/L99Q/M102K/N193R/P142E/Q151K/Q38R/Q45L/V71I/Y165I)
Construct: luciferase catalytic domain (nanoKAZ, 19 kDa) from the Oplophorus-derived luciferase; host or cells: cell-free: 1-Step Human Coupled IVT Kit, pT7CFE1-based vector
experiment_description: In vitro bioluminescence screening of imidazo[1,2-a]pyrazin-3(7H)-ones with nanoKAZ expressed in vitro (96-well luminometer, 2 h kinetic)
Type: biochemical
condition_parameters: Table 1; furimazine = 1
Lab note: cut-off is 0.7. Strictly less in V4: area under the curve for two hours, normalized using furimazine (Q-1) as a reference is Fulfilled. Exactly 0.7 or more is Not fulfilled.

Worked examples, 2 compounds total:
compound	discrete_label
O=c1c(Cc2ccccc2)nc2c(Cc3ccccc3)[nH]c(-c3ccccc3F)cn1-2	Fulfilled
O=c1c(Cc2ccc(C(F)(F)F)o2)nc2c(Cc3ccccc3)[nH]c(-c3ccccc3)cn1-2	Fulfilled

Q) Threshold test, V4: area under the curve for two hours, normalized using furimazine (Q-1) as a reference < 0.7: CCc1ccc(Cc2nc3c(Cc4ccccc4F)[nH]c(-c4ccccc4)cn-3c2=O)o1
A) Not fulfilled

Q) I wonder whether Cc1cccc(Cc2nc3c(Cc4ccccc4F)[nH]c(-c4ccccc4)cn-3c2=O)c1 has V4: area under the curve for two hours, normalized using furimazine (Q-1) as a reference below 0.7. Can you tell?
A) Not fulfilled

Q) Hello, I'm reviewing records and need to know if V4: area under the curve for two hours, normalized using furimazine (Q-1) as a reference of Cc1cc(Cc2nc3c(Cc4ccccc4)[nH]c(-c4ccccc4F)cn-3c2=O)oc1C is below 0.7. Could you check?
A) Not fulfilled

Q) Problem: For the compound O=c1c(Cc2ccco2)nc2c(Cc3ccccc3)[nH]c(-c3ccc(O)cc3)cn1-2 [Q-80, reference compound] , is V4: area under the curve for two hours, normalized using furimazine (Q-1) as a reference under 0.7?
A) Fulfilled

Q) In plain terms, does COc1cccc(Cc2nc3c(Cc4ccccc4)[nH]c(-c4ccccc4)cn-3c2=O)c1 come in under 0.7 for V4: area under the curve for two hours, normalized using furimazine (Q-1) as a reference?
A) Not fulfilled

Q) Threshold test, V4: area under the curve for two hours, normalized using furimazine (Q-1) as a reference < 0.7: Cc1ccc(Cc2nc3c(Cc4ccccc4)[nH]c(-c4ccccc4)cn-3c2=O)o1
A) Not fulfilled

###

study_target: nanoKAZ luciferase (Oplophorus gracilirostris, UniProt Q9GV45, A31E/A60N/A81I/F95D/I117V/K70R/L54V/L99Q/M102K/N193R/P142E/Q151K/Q38R/Q45L/V71I/Y165I)
Construct: luciferase catalytic domain (nanoKAZ, 19 kDa) from the Oplophorus-derived luciferase; host or cells: cell-free: 1-Step Human Coupled IVT Kit, pT7CFE1-based vector
experiment_description: In vitro bioluminescence screening of imidazo[1,2-a]pyrazin-3(7H)-ones with nanoKAZ expressed in vitro (96-well luminometer, 2 h kinetic)
Format: biochemical
condition_parameters: Table 1; furimazine = 1
readout_kind: V4: area under the curve for two hours, normalized using furimazine (Q-1) as a reference
Provide a numeric answer; units are not to be included.

Some solved entries appear below for comparison.
molecule	value
CCc1ccc(Cc2nc3c(Cc4cccc(F)c4)[nH]c(-c4ccccc4)cn-3c2=O)o1	2.08
COc1cccc(Cc2nc3c(Cc4ccccc4F)[nH]c(-c4ccccc4)cn-3c2=O)c1	1.12
O=c1c(Cc2ccco2)nc2c(Cc3ccccc3)[nH]c(-c3c(F)cccc3F)cn1-2	0.97
Cc1ccc(Cc2nc3c(Cc4ccccc4F)[nH]c(-c4ccccc4)cn-3c2=O)o1	1.81
Cc1ccc(Cc2nc3c(Cc4ccccc4)[nH]c(-c4cccc(F)c4)cn-3c2=O)o1	1.22

Q) Given the molecule CCc1ccc(Cc2nc3c(Cc4ccccc4)[nH]c(-c4ccccc4)cn-3c2=O)s1 , write its reported V4: area under the curve for two hours, normalized using furimazine (Q-1) as a reference.
A) 0.69

Q) Please give measured V4: area under the curve for two hours, normalized using furimazine (Q-1) as a reference of the following entry: O=c1c(Cc2ccco2)nc2c(Cc3ccccc3)[nH]c(-c3ccccc3F)cn1-2
A) 1.08

Q) Note V4: area under the curve for two hours, normalized using furimazine (Q-1) as a reference for the molecule shown: Cc1ccc(Cc2nc3c(Cc4cccc(F)c4)[nH]c(-c4ccccc4)cn-3c2=O)o1
A) 2.04
